Source of measurements: patent US20260365734

The reader will find reported pEC50 values listed item by item below.
# target-or-test-system: human PD-L1 (cell surface) (human, UniProt Q9NZQ7)
# Sequence (Q9NZQ7 19-238): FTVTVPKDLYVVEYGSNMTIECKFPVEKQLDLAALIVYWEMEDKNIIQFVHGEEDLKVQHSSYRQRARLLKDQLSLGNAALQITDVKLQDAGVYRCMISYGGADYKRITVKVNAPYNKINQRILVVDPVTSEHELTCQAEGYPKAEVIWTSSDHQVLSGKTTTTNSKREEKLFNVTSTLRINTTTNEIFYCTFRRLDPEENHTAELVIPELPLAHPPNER
# protocol-notes: FACS
pEC50: −log10 of the molar value.
experimental-readout: pEC50

>  <binder>
5F8-3A3 (antibody, V domains shown) VH: EVQLVESGGGLVQPGGSLRLSCAASGFDFSDTHMSWVRQAPGKERELVAIITGGGSTDYVDSVKGRFTISRDNSKNTLYLQMNSLRAEDTAVYYCLARRTTIYWGQGTQVTVSS

>  <obs-value>
9.14

$$$$
>  <binder>
5F8-hv8 (antibody, V domains shown) VH: EVQLVESGGGLVQPGGSLRLSCAASGFDFSDTHMSWVRQAPGKERELVAIITSGGSTDYVDSVKGRFTISRDNSKNTLYLQMNSLRAEDTAVYYCNARRTTIYWGQGTQVTVSS

>  <obs-value>
9.16

$$$$
>  <binder>
5F8-4B12 (antibody, V domains shown) VH: EVQLVESGGGLVQPGGSLRLSCAASGFDFPDTHMSWVRQAPGKERELVAIITSGGFTDYVDSVKGRFTISRDNSKNTLYLQMNSLRAEDTAVYYCRARRTTIYWGQGTQVTVSS

>  <obs-value>
9.20

$$$$
>  <binder>
5F8-8E3 (antibody, V domains shown) VH: EVQLVESGGGLVQPGGSLRLSCAASGFDFSDTHMSWVRQAPGKERELVAIITSGGSTDYVDSVKGRFTISRDNSKNTLYLQMNSLRAEDTAVYYCNARLTTIYWGQGTQVTVSS

>  <obs-value>
9.24

$$$$
